Biological target: MKK4 (Homo sapiens)
Sequence (P45985 1-399): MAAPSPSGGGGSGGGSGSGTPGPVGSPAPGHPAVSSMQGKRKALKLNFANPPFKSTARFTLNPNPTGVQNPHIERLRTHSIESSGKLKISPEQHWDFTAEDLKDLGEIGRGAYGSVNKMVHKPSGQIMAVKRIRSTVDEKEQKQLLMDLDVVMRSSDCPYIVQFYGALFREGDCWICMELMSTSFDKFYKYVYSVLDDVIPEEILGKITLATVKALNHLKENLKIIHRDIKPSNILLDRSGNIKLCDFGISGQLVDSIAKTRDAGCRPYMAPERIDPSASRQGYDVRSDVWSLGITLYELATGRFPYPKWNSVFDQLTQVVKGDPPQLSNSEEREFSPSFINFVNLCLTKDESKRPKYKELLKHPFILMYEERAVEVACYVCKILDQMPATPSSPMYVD
pKd: −log10 of the molar value.
MEASURED PROPERTY: pKd

[[record]]
chemical_structure = "O=C(O)CSC1=CC(=O)c2ccccc2C1=O"
system_tested = "MKK4 (Homo sapiens)"
result = 4.71


====

System: U936
Assay: Anticancer cell cytotoxicity assay
Format: cell-based
Details: Homo sapiens, 24 h, read-out: U936 IC50 (μM)
MEASURED PROPERTY: IC50

[[record]]
molecule = "CC(C)=CCC1=C(O)C(=O)c2ccccc2C1=O [Compound 3, lapachol]"
system_tested = "U936"
measured_property = "IC50"
result = "> 50 µM"


====

The compounds listed here are annotated with their IC50.
System: primary peripheral blood mononuclear cells (PBMCs)
Experiment: Cytotoxicity assay
Assay type: cell-based
Conditions: Homo sapiens, PBMC, 24 h, read-out: PBMCs IC50 (μM)
MEASURED PROPERTY: IC50

[[record]]
chemical_structure = "COc1ccc(OC)c2c1C(=O)C=C(SCCC(=O)O)C2=O"
result = "> 50 µM"

[[record]]
chemical_structure = "COC1=C(C)C(=O)c2ccccc2C1=O"
result = "> 50 µM"

[[record]]
chemical_structure = "CC(C)=CCC1=C(O)C(=O)c2ccccc2C1=O"
result = "> 50 µM"

